Overview of reported herbicidal activity inhibition ratio (%), Eclipta prostrata across a group of molecules:
Test system: eclipta prostrata
Assay: Herbicidal activity, pot culture method (primary and secondary screening test)
Format: in vivo
Conditions: primary screening, pot culture, 150 g/ha, sprayed at 3-leaf stage, result 15 days later
testReadout: herbicidal activity inhibition ratio (%), Eclipta prostrata

| mol | reportedValue |
| --- | --- |
| Cc1ccccc1-n1c(=O)[nH]c2ccc(C(=O)C3=C(O)CC(C)(C)CC3=O)cc2c1=O | 25 |
| Cn1c(=O)n(-c2ccc(OC(F)(F)F)cc2)c(=O)c2cc(C(=O)C3=C(O)CC(C)(C)CC3=O)ccc21 | 80 |
| Cn1c(=O)n(-c2ccc([N+](=O)[O-])cc2)c(=O)c2cc(C(=O)C3=C(O)CC(C)(C)CC3=O)ccc21 | 80 |
| Cn1c(=O)n(-c2ccc(F)cc2)c(=O)c2cc(C(=O)C3=C(O)CCCC3=O)ccc21 | 95 |
| Cn1c(=O)n(-c2ccccc2Cl)c(=O)c2cc(C(=O)C3=C(O)CC(C)(C)CC3=O)ccc21 | 85 |
| Cn1c(=O)n(-c2ccccc2)c(=O)c2cc(C(=O)C3=C(O)CC(C)(C)CC3=O)ccc21 | 80 |
| Cn1c(=O)n(-c2cccc(Cl)c2)c(=O)c2cc(C(=O)C3=C(O)CC(C)(C)CC3=O)ccc21 | 90 |

---

System: setaria viridis
Assay: Herbicidal activity, pot culture method (primary and secondary screening test)
Type: in vivo
Details: primary screening, pot culture, 150 g/ha, sprayed at 3-leaf stage, result 15 days later
testReadout: herbicidal activity inhibition ratio (%), Setaria viridis

| compound | reportedValue |
| --- | --- |
| Cc1ccc(-n2c(=O)c3cc(C(=O)C4=C(O)CC(C)CC4=O)ccc3n(C)c2=O)cc1 (centres unmarked) | 100% |
| Cn1c(=O)n(-c2cc(Cl)cc(Cl)c2)c(=O)c2cc(C(=O)C3=C(O)CCCC3=O)ccc21 | 80% |
| CC(C)c1ccccc1-n1c(=O)c2cc(C(=O)C3=C(O)CCCC3=O)ccc2n(C)c1=O [Compound 65] | 98% |
| Cc1ccccc1-n1c(=O)c2cc(C(=O)C3=C(O)CC(C)(C)CC3=O)ccc2n(C)c1=S | 10% |
| Cc1ccccc1-n1c(=O)c2cc(C(=O)C3=C(O)CCCC3=O)ccc2n(CC(C)C)c1=O | 10% |
| Cn1c(=O)n(-c2ccccc2Br)c(=O)c2cc(C(=O)C3=C(O)CCCC3=O)ccc21 | 60% |
| Cc1ccccc1-n1c(=O)c2cc(C(=O)C3=C(O)CC(C)(C)CC3=O)ccc2n(CC(C)C)c1=O | 10% |
| Cc1cccc(C)c1-n1c(=O)c2cc(C(=O)C3=C(O)C(C)(C)CCC3=O)ccc2n(C)c1=O | 45% |

---

Tested on: eclipta prostrata
Assay: Herbicidal activity, pot culture method (primary and secondary screening test)
Assay type: in vivo
Details: dose 37.5 g/ha, sprayed at 3-leaf stage, investigated 15 days later

| compound | systemTested | inhibition ratio, Eclipta prostrata |
| --- | --- | --- |
| Cn1c(=O)n(-c2ccccc2Cl)c(=O)c2cc(C(=O)C3=C(O)CCCC3=O)ccc21 | eclipta prostrata | 30% |
| Cc1ccccc1-n1c(=O)c2cc(C(=O)C3=C(O)CCCC3=O)ccc2n(C)c1=O | eclipta prostrata | 50% |
| Cn1c(=O)n(-c2cccc(Br)c2)c(=O)c2cc(C(=O)C3=C(O)CCCC3=O)ccc21 | eclipta prostrata | 100% |
| CCn1c(=O)n(-c2ccccc2C)c(=O)c2cc(C(=O)C3=C(O)CC(C)CC3=O)ccc21 (stereo not shown) | eclipta prostrata | 60% |
| Cn1c(=O)n(-c2ccccc2Cl)c(=O)c2cc(C(=O)C3=C(O)CC(C)(C)CC3=O)ccc21 | eclipta prostrata | 70% |
| Cc1cccc(C)c1-n1c(=O)c2cc(C(=O)C3=C(O)CCCC3=O)ccc2n(C)c1=O | eclipta prostrata | 30% |
| CS(=O)(=O)c1ccc(C(=O)C2C(=O)CCCC2=O)c([N+](=O)[O-])c1 [Mesotrione, mesotrione, reference compound] | eclipta prostrata | 75% |

---

# Lookup of reported herbicidal activity inhibition ratio (%), Setaria viridis keyed by entry
Test system: setaria viridis
Assay: Herbicidal activity, pot culture method (primary and secondary screening test)
Format: in vivo
Conditions: primary screening, pot culture, 150 g/ha, sprayed at 3-leaf stage, result 15 days later
testReadout: herbicidal activity inhibition ratio (%), Setaria viridis

| mol | reportedValue |
| --- | --- |
| Cc1cccc(Cl)c1-n1c(=O)c2cc(C(=O)C3=C(O)CCCC3=O)ccc2n(C)c1=O | 100 |
| Cn1c(=O)n(-c2ccc(C(F)(F)F)cc2)c(=O)c2cc(C(=O)C3=C(O)CCCC3=O)ccc21 | 30 |
| Cc1ccccc1-n1c(=O)c2cc(C(=O)C3=C(O)CCCC3=O)ccc2n(Cc2ccccc2F)c1=O | 50 |
| CCCCn1c(=O)n(-c2ccccc2C)c(=O)c2cc(C(=O)C3=C(O)CC(C)(C)CC3=O)ccc21 | 10 |
| Cc1ccccc1-n1c(=O)c2cc(C(=O)C3=C(O)CC(C)(C)CC3=O)ccc2n(C)c1=O | 100 |
| Cc1cccc(C)c1-n1c(=O)c2cc(C(=O)C3=C(O)CC(C)(C)CC3=O)ccc2n(C)c1=O | 80 |
| Cn1c(=O)n(-c2cc(Cl)cc(Cl)c2)c(=O)c2cc(C(=O)C3=C(O)CC(C)(C)CC3=O)ccc21 | 85 |

---

Test system: setaria viridis
Assay: Herbicidal activity, pot culture method (primary and secondary screening test)
Assay type: in vivo
Conditions: primary screening, pot culture, 150 g/ha, sprayed at 3-leaf stage, result 15 days later
testReadout: herbicidal activity inhibition ratio (%), Setaria viridis

| mol | systemTested | reportedValue |
| --- | --- | --- |
| CCc1ccccc1-n1c(=O)c2cc(C(=O)C3=C(O)CCCC3=O)ccc2n(C)c1=O | setaria viridis | 83 |
| Cn1c(=O)n(-c2ccc(C(F)(F)F)cc2)c(=O)c2cc(C(=O)C3=C(O)CC(C)(C)CC3=O)ccc21 | setaria viridis | 10 |
| Cn1c(=O)n(-c2ccccc2)c(=O)c2cc(C(=O)C3=C(O)CC(C)(C)CC3=O)ccc21 | setaria viridis | 45 |
| Cn1c(=O)n(-c2ccc(OC(F)(F)F)cc2)c(=O)c2cc(C(=O)C3=C(O)CC(C)(C)CC3=O)ccc21 | setaria viridis | 50 |

---

Test system: eclipta prostrata
Test: Herbicidal activity, pot culture method (primary and secondary screening test)
Assay type: in vivo
Conditions: dose 37.5 g/ha, sprayed at 3-leaf stage, investigated 15 days later
Listing: inhibition ratio, Eclipta prostrata of selected compounds

| mol | inhibition ratio, Eclipta prostrata (%) |
| --- | --- |
| CCn1c(=O)n(-c2ccccc2C)c(=O)c2cc(C(=O)C3=C(O)CCCC3=O)ccc21 | 95 |
| CCc1ccccc1-n1c(=O)c2cc(C(=O)C3=C(O)CCCC3=O)ccc2n(C)c1=O | 20 |
| CC(C)c1ccccc1-n1c(=O)c2cc(C(=O)C3=C(O)CCCC3=O)ccc2n(C)c1=O | 30 |
| Cc1c(C(=O)C2=C(O)CC(C)(C)CC2=O)ccc2c1c(=O)n(-c1ccccc1C(F)(F)F)c(=O)n2C | 80 |
| Cc1ccccc1-n1c(=O)c2cc(C(=O)C3=C(O)CC(C)(C)CC3=O)ccc2n(C)c1=O | 40 |

---

System: echinochloa crusgalli
Assay: Herbicidal activity, pot culture method (primary and secondary screening test)
Assay type: in vivo
Conditions: dose 75 g/ha, sprayed at 3-leaf stage, investigated 15 days later
Attribute: inhibition ratio, Echinochloa crusgalli

| compound | inhibition ratio, Echinochloa crusgalli |
| --- | --- |
| Cn1c(=O)n(-c2ccccc2Cl)c(=O)c2cc(C(=O)C3=C(O)CCCC3=O)ccc21 [Compound 5] | 90% |
| Cn1c(=O)n(-c2cccc(Br)c2)c(=O)c2cc(C(=O)C3=C(O)CCCC3=O)ccc21 [Compound 23] | 20% |
| CS(=O)(=O)c1ccc(C(=O)C2C(=O)CCCC2=O)c([N+](=O)[O-])c1 [Mesotrione, mesotrione, reference compound] | 70% |
| CCn1c(=O)n(-c2ccccc2C)c(=O)c2cc(C(=O)C3=C(O)CCCC3=O)ccc21 [Compound 66] | 100% |
| CCn1c(=O)n(-c2ccccc2C)c(=O)c2cc(C(=O)C3=C(O)CC(C)CC3=O)ccc21 (stereo not drawn) [Compound 70] | 55% |
| Cc1cccc(C)c1-n1c(=O)c2cc(C(=O)C3=C(O)CCCC3=O)ccc2n(C)c1=O [Compound 34] | 80% |
| Cc1ccccc1-n1c(=O)c2cc(C(=O)C3=C(O)CCCC3=O)ccc2n(C)c1=O [Compound 20] | 60% |
| CCc1ccccc1-n1c(=O)c2cc(C(=O)C3=C(O)CCCC3=O)ccc2n(C)c1=O [Compound 47] | 88% |
| Cn1c(=O)n(-c2ccccc2Cl)c(=O)c2cc(C(=O)C3=C(O)CC(C)(C)CC3=O)ccc21 [Compound 6] | 75% |
| Cc1ccccc1-n1c(=O)c2cc(C(=O)C3=C(O)CC(C)(C)CC3=O)ccc2n(C)c1=O [Compound 21] | 75% |
| Cc1c(C(=O)C2=C(O)CC(C)(C)CC2=O)ccc2c1c(=O)n(-c1ccccc1C(F)(F)F)c(=O)n2C [Compound 91] | 90% |
| CC(C)c1ccccc1-n1c(=O)c2cc(C(=O)C3=C(O)CCCC3=O)ccc2n(C)c1=O [Compound 65] | 100% |

Value source: patent US9771334B2
